# assayDetails: chemical genetic growth profiling, strain panel (AID 1159580);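 also: tested at 20 µM; growth read once vehicle control cultures reached saturation at 30 °C; 1 = growth at the plate median or of vehicle wells; lower values mean less growth of the strain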
# measurementParameters: S. cerevisiae deletion strains, growth OD, locus YKL009W, strain mrt4, stronger effect = lower value
The campaign covered roughly 5,500 compounds. About 2,000 (36%) were called active. Another 18% or so got no clear call; they are omitted. The list shows a part of the results.
Under this convention, YES denotes normalized growth strictly below 1 and NO denotes normalized growth at or above 1.

[[record]]
compound = "COc1cc2ccc(=O)oc2c(OC)c1OC"
discretelabel = "NO"

[[record]]
compound = "C=C(C)c1cc2cc(C(C)=O)c(O)cc2o1"
discretelabel = "YES"

[[record]]
compound = "COc1cc(OC)c(-c2c(OC)cc(OC)cc2OC)c(OC)c1"
discretelabel = "NO"

[[record]]
compound = "CCOc1nc2cccc(C(=O)OC(C)OC(=O)OC3CCCCC3)c2n1Cc1ccc(-c2ccccc2-c2nn[nH]n2)cc1 (stereo not drawn)"
discretelabel = "NO"

[[record]]
compound = "CCOc1ccc(Cc2nccc3cc(OCC)c(OCC)cc23)cc1OCC"
discretelabel = "YES"

[[record]]
compound = "CN1CCN(C(c2ccccc2)c2ccccc2)CC1"
discretelabel = "YES"

[[record]]
compound = "COc1c(O)cc(O)cc1O"
discretelabel = "NO"

[[record]]
compound = "COc1ccc2c(=O)c(-c3cc4c(cc3OC)OCO4)coc2c1"
discretelabel = "YES"

[[record]]
compound = "CCCCC(=O)N(Cc1ccc(-c2ccccc2-c2nn[nH]n2)cc1)[C@H](C(=O)O)C(C)C"
discretelabel = "YES"

[[record]]
compound = "COc1c2occc2cc2ccc(=O)oc12"
discretelabel = "YES"

[[record]]
compound = "CC(C)=CCOc1c2occc2cc2ccc(=O)oc12"
discretelabel = "YES"

[[record]]
compound = "CC(=O)N[C@@H](CC(=O)O)C(=O)O"
discretelabel = "NO"

[[record]]
compound = "O=c1n(CCCN2CCN(c3cccc(Cl)c3)CC2)nc2ccccn12"
discretelabel = "YES"

[[record]]
compound = "CCCCC(=O)O[C@H]1CCC2C3CCc4cc(O)ccc4C3CC[C@@]21C (stereo partly drawn)"
discretelabel = "YES"

[[record]]
compound = "CCNc1nc(Cl)nc(NC(C)C)n1"
discretelabel = "NO"

[[record]]
compound = "CC1=C2CCC3C(CC[C@]4(C)C(=O)CCC34)[C@@]2(C)CCC1=O (stereo partly drawn)"
discretelabel = "YES"

[[record]]
compound = "CC(=O)Oc1ccc2c(c1)CCC1C2CC[C@@]2(C)C1CC[C@@H]2OC(C)=O (stereo partly drawn)"
discretelabel = "YES"

[[record]]
compound = "COP(=S)(OC)SCn1nnc2ccccc2c1=O"
discretelabel = "YES"

[[record]]
compound = "C[C@]12CCC3C(CC[C@H]4C[C@@H](O)CC[C@]34C)C1CCC2=O (stereo partly drawn)"
discretelabel = "YES"

[[record]]
compound = "O=C1c2ccccc2C(=O)c2c1ccc(O)c2O"
discretelabel = "YES"

[[record]]
compound = "CN1CCN(CCCN2c3ccccc3Sc3ccc(Cl)cc32)CC1"
discretelabel = "YES"


###

# assayDetails: chemical genetic growth profiling, strain panel (AID 1159580);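 also: tested at 20 µM; growth read once vehicle control cultures reached saturation at 30 °C; 1 = growth at the plate median or of vehicle wells; lower values mean less growth of the strain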
# measurementParameters: S. cerevisiae deletion strains, growth OD, locus YLR102C, strain apc9, stronger effect = lower value
Screen size: about 5,500 compounds; about 2,000 (36%) were called active. Not shown: some 18% with an inconclusive outcome. Some of the results follow.
// reported normalized growth for each item listed
metric: normalized growth

[[record]]
compound = "CC1=C(C(=O)O)N2C(=O)[C@@H](NC(=O)[C@H](N)C3=CCC=CC3)C2SC1 (stereo partly drawn)"
metric = "normalized growth"
measvalue = 1

[[record]]
compound = "CN1CCN(CCCN2c3ccccc3Sc3ccc(Cl)cc32)CC1"
metric = "normalized growth"
measvalue = 1.01

[[record]]
compound = "COC(=O)C[C@H]1C(C)(C)[C@@H](OC(C)=O)[C@@H]2CC3C4CC(=O)O[C@@H](c5ccoc5)[C@]4(C)CCC3[C@@]1(C)C2=O (stereo partly drawn)"
metric = "normalized growth"
measvalue = 1.02

[[record]]
compound = "O=[N+]([O-])/N=C1/NCCN1Cc1ccc(Cl)cc1"
metric = "normalized growth"
measvalue = 0.996

[[record]]
compound = "CCCCCN=C(N)N/N=C\\c1c[nH]c2ccc(OC)cc12"
metric = "normalized growth"
measvalue = 1.02

[[record]]
compound = "Cc1c(N(C)CS(=O)(=O)O)c(=O)n(-c2ccccc2)n1C"
metric = "normalized growth"
measvalue = 0.984

[[record]]
compound = "O=c1n(CCCN2CCN(c3cccc(Cl)c3)CC2)nc2ccccn12"
metric = "normalized growth"
measvalue = 0.993

[[record]]
compound = "O=c1c(-c2ccc3c(c2)OCO3)coc2cc(O)ccc12"
metric = "normalized growth"
measvalue = 0.987

[[record]]
compound = "O=C(CCCN1CC=C(n2c(=O)[nH]c3ccccc32)CC1)c1ccc(F)cc1"
metric = "normalized growth"
measvalue = 0.989

[[record]]
compound = "CCCCC/C=C\\C/C=C\\C/C=C\\C/C=C\\CCCC(=O)O"
metric = "normalized growth"
measvalue = 0.971

[[record]]
compound = "CC1=C2CCC3C(CC[C@]4(C)C(=O)CCC34)[C@@]2(C)CCC1=O (stereo partly drawn)"
metric = "normalized growth"
measvalue = 0.977

[[record]]
compound = "CSCCC(NC=O)C(=O)NC(CC(C)C)C(=O)NC(Cc1ccccc1)C(=O)O (stereo not drawn)"
metric = "normalized growth"
measvalue = 1

[[record]]
compound = "O=c1[nH]cnc2nc[nH]c12"
metric = "normalized growth"
measvalue = 0.979

[[record]]
compound = "COc1cc2c(cc1-c1coc3c4c(c(OC)cc3c1=O)OC(C)(C)C=C4)OCO2"
metric = "normalized growth"
measvalue = 0.997

[[record]]
compound = "N#Cc1ccc2c(c1)N(CCCN1CCC(O)CC1)c1ccccc1S2"
metric = "normalized growth"
measvalue = 1.02

[[record]]
compound = "CCN(CC)CCNC(=O)COc1ccc(OC)cc1"
metric = "normalized growth"
measvalue = 0.991

[[record]]
compound = "COc1cc(OC)c2c(c1Cl)OC1(C2=O)C(O)=CC(=O)CC1C (stereo not drawn)"
metric = "normalized growth"
measvalue = 0.991

[[record]]
compound = "COc1ccc2c(=O)c(CC(=O)O)coc2c1"
metric = "normalized growth"
measvalue = 0.992

[[record]]
compound = "COc1c2occc2cc2ccc(=O)oc12"
metric = "normalized growth"
measvalue = 0.986

[[record]]
compound = "CC1(C)S[C@@H]2[C@H](NC(=O)COc3ccccc3)C(=O)N2[C@H]1C(=O)O"
metric = "normalized growth"
measvalue = 1.02

[[record]]
compound = "CC(=O)N[C@@H](CC(=O)O)C(=O)O"
metric = "normalized growth"
measvalue = 1.01

[[record]]
compound = "C[C@]12CCC3C(CC[C@H]4C[C@@H](Cl)CC[C@]34C)C1CCC2=O (stereo partly drawn)"
metric = "normalized growth"
measvalue = 1.01

[[record]]
compound = "CN1Cc2c(N)cccc2C(c2ccccc2)C1 (stereo not drawn)"
metric = "normalized growth"
measvalue = 1.01


###

# assayDetails: chemical genetic growth profiling, strain panel (AID 1159580);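 also: tested at 20 µM; growth read once vehicle control cultures reached saturation at 30 °C; 1 = growth at the plate median or of vehicle wells; lower values mean less growth of the strain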
# measurementParameters: S. cerevisiae deletion strains, growth OD, locus YBR021W, strain FUR4, stronger effect = lower value
Screen size: about 5,500 compounds; about 2,000 (36%) were called active. Not shown: some 18% with an inconclusive outcome. This is one part of the list.
metric: normalized growth

[[record]]
compound = "O=C1OC(=O)C2C3CCC(O3)C12 (stereo not drawn)"
metric = "normalized growth"
measvalue = "0.947 (inactive)"

[[record]]
compound = "COc1cc2ccc(=O)oc2c(OC)c1OC"
metric = "normalized growth"
measvalue = "0.97 (inactive)"

[[record]]
compound = "COc1cc2ccc(=O)oc2c(O)c1O"
metric = "normalized growth"
measvalue = "1.03 (inactive)"

[[record]]
compound = "Cn1cnc([N+](=O)[O-])c1Sc1ncnc2nc[nH]c12"
metric = "normalized growth"
measvalue = "1.02 (inactive)"

[[record]]
compound = "CC(C)=CCOc1cc2oc(=O)ccc2cc1O"
metric = "normalized growth"
measvalue = "0.876 (inactive)"

[[record]]
compound = "O=c1ccc2cc(O[C@@H]3O[C@H](CO)[C@@H](O)[C@H](O)[C@H]3O)c(O)cc2o1"
metric = "normalized growth"
measvalue = "1.06 (inactive)"

[[record]]
compound = "Nc1ncnc2nc[nH]c12"
metric = "normalized growth"
measvalue = "0.201 (active)"

[[record]]
compound = "COc1cc(OC)c2c(c1Cl)OC1(C2=O)C(O)=CC(=O)CC1C (stereo not drawn)"
metric = "normalized growth"
measvalue = "1.04 (inactive)"

[[record]]
compound = "c1coc(CNc2ncnc3nc[nH]c23)c1"
metric = "normalized growth"
measvalue = "1.02 (inactive)"

[[record]]
compound = "OCCN1CCN(CCCN2c3ccccc3Sc3ccc(Cl)cc32)CC1"
metric = "normalized growth"
measvalue = "0.988 (inactive)"

[[record]]
compound = "C[C@]12C=CC(=O)C=C1CCC1C2C(=O)C[C@@]2(C)C1CC[C@]2(O)C(=O)CO (stereo partly drawn)"
metric = "normalized growth"
measvalue = "0.985 (inactive)"

[[record]]
compound = "COc1ccc2ccc(=O)oc2c1CC=C(C)C"
metric = "normalized growth"
measvalue = "0.662 (active)"

[[record]]
compound = "CC(C)=CCOc1c2occc2cc2ccc(=O)oc12"
metric = "normalized growth"
measvalue = "0.74 (active)"


The measured values listed here are drawn from PubChem BioAssay AID1159580.
